Quick reference: Stabilization (° C.) of the listed items.
# Target System: OGFOD1 (hsOGFOD1_FL) (Homo sapiens)
# Construct: His6 tag (N-terminal pET-28a leader); made in house; host or cells: E. coli BL21(DE3)
# Sequence (Q8N543 whole entry): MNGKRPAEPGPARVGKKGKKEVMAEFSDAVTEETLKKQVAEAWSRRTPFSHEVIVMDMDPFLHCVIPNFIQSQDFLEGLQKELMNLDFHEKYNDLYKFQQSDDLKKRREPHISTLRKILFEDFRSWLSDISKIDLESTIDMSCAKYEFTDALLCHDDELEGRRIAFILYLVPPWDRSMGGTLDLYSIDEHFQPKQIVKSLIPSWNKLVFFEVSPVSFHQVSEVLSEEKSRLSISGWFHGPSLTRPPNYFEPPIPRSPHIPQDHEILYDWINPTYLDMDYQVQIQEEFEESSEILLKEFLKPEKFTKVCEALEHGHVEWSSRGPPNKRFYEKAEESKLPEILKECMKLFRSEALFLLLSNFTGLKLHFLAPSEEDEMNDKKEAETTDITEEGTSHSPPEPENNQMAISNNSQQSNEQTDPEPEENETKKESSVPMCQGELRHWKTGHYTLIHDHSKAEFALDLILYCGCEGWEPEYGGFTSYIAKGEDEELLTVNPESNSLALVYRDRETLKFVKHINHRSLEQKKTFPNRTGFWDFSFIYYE
# Protocol Details: Thermal stability shift assay (SYPRO Orange)
# Assay type: binding
# Run Parameters: change in apparent protein melting temperature; compound 20 μM, 1 μM hsOGFOD1_FL, 50 μM MnCl2
Reported Property: Stabilization (° C.)

>>> df
                                    compound     reported_property   result
 0        O=C(O)CCC(=O)NNC(=O)c1ccc2ccccc2c1  Stabilization (° C.)  +7.1 °C
 1          O=C(O)CCC(=O)NNS(=O)(=O)c1ccccc1  Stabilization (° C.)  +7.1 °C
 2  CCC(=O)C1C(=O)CC(C(=O)O)CC1=O (centres unmarked)  Stabilization (° C.)  +6.9 °C
 3         O=C(O)c1ccnc(-c2cc(C(=O)O)ccn2)c1  Stabilization (° C.)  +7.5 °C
 4                O=C(O)CCC(=O)Nc1ccc(Br)cn1  Stabilization (° C.)  +7.0 °C
 5          N#Cc1ccc2c(=O)c(C(=O)O)c[nH]c2c1  Stabilization (° C.)  +7.5 °C
 6  CC(NC(=O)C(=O)O)C(=O)O (centres unmarked)  Stabilization (° C.)  +6.3 °C
 7              O=C(O)CCC(=O)Nc1cc2ccccc2cn1  Stabilization (° C.)  +8.4 °C
 8             O=C(O)CCNC(=O)c1nc2ccccc2cc1O  Stabilization (° C.)  +7.2 °C
 9          O=C(O)CNC(=O)c1nc(Cl)c2ccccc2c1O  Stabilization (° C.)  +7.0 °C
10                    O=C(O)c1ccnc(C(=O)O)c1  Stabilization (° C.)  +6.7 °C
